In this section, each of the compounds is paired with its reported MIC50.
Tested on: Clostridium spiroforme
EXPERIMENT NOTES: Antimicrobial activity against Clostridium spiroforme by Wadsworth agar dilution method
Format: functional
CONDITION DETAILS: Thomasclavelia spiroformis
Please respond with the number in µg/mL and leave the unit unwritten.

Fill in: MIC50 of CC(=O)Oc1ccccc1C(=O)Nc1ncc([N+](=O)[O-])s1 [NITAZOXANIDE] is ___ 0.5

Fill in: MIC50 of `NC[C@@H]1O[C@H](O[C@H]2[C@@H](O)[C@H](O[C@@H]3[C@@H](O)[C@H](N)C[C@H](N)[C@H]3O[C@H]3O[C@H](CN)[C@@H](O)[C@H](O)[C@H]3N)O[C@@H]2CO)[C@H](N)[C@@H](O)[C@@H]1O` is ___ 256

Fill in: MIC50 of `CN[C@H](CC(C)C)C(=O)N[C@H]1C(=O)N[C@@H](CC(N)=O)C(=O)N[C@H]2C(=O)N[C@H]3C(=O)N[C@H](C(=O)N[C@H](C(=O)O)c4cc(O)cc(O)c4-c4cc3ccc4O)[C@H](O)c3ccc(c(Cl)c3)Oc3cc2cc(c3O[C@@H]2O[C@H](CO)[C@@H](O)[C@H](O)[C@H]2O[C@H]2C[C@](C)(N)[C@H](O)[C@H](C)O2)Oc2ccc(cc2Cl)[C@H]1O` is ___ 1

Fill in: MIC50 of `CO[C@H]1/C=C/O[C@@]2(C)Oc3c(C)c(O)c4c(O)c(c5c(nc6cc(C)ccn65)c4c3C2=O)NC(=O)/C(C)=C\C=C\[C@H](C)[C@H](O)[C@@H](C)[C@@H](O)[C@@H](C)[C@H](OC(C)=O)[C@@H]1C` is ___ 0.25

====

Test system: Clostridium sp.
EXPERIMENT NOTES: Antimicrobial activity against Clostridium sp. by Wadsworth agar dilution method
Type: functional
ATTRIBUTE MEASURED: MIC50
Give me the value, and tack the unit on after it.

// below: answered compounds
>  <COMPOUND>
NC[C@@H]1O[C@H](O[C@H]2[C@@H](O)[C@H](O[C@@H]3[C@@H](O)[C@H](N)C[C@H](N)[C@H]3O[C@H]3O[C@H](CN)[C@@H](O)[C@H](O)[C@H]3N)O[C@@H]2CO)[C@H](N)[C@@H](O)[C@@H]1O

>  <MIC50>
256 µg/mL

$$$$
>  <COMPOUND>
CN[C@H](CC(C)C)C(=O)N[C@H]1C(=O)N[C@@H](CC(N)=O)C(=O)N[C@H]2C(=O)N[C@H]3C(=O)N[C@H](C(=O)N[C@H](C(=O)O)c4cc(O)cc(O)c4-c4cc3ccc4O)[C@H](O)c3ccc(c(Cl)c3)Oc3cc2cc(c3O[C@@H]2O[C@H](CO)[C@@H](O)[C@H](O)[C@H]2O[C@H]2C[C@](C)(N)[C@H](O)[C@H](C)O2)Oc2ccc(cc2Cl)[C@H]1O

>  <MIC50>
1 µg/mL

$$$$
>  <COMPOUND>
CO[C@H]1/C=C/O[C@@]2(C)Oc3c(C)c(O)c4c(O)c(c5c(nc6cc(C)ccn65)c4c3C2=O)NC(=O)/C(C)=C\C=C\[C@H](C)[C@H](O)[C@@H](C)[C@@H](O)[C@@H](C)[C@H](OC(C)=O)[C@@H]1C

>  <MIC50>
0.25 µg/mL

$$$$

Next compound, please.
Fill in: MIC50 of CC(=O)Oc1ccccc1C(=O)Nc1ncc([N+](=O)[O-])s1 [NITAZOXANIDE] is ___ 0.5 µg/mL

====

Tested on: Desulfovibrio desulfuricans
EXPERIMENT NOTES: Antimicrobial activity against Desulfovibrio desulfuricans by Wadsworth agar dilution method
Assay type: functional
ATTRIBUTE MEASURED: MIC50 (mg/L)
Please respond with the number in mg/L and leave the unit unwritten.

>  <COMPOUND>
CC(=O)Oc1ccccc1C(=O)Nc1ncc([N+](=O)[O-])s1 [NITAZOXANIDE]

>  <OBSERVED>
4

$$$$

Next compound, please.
Fill in: MIC50 of `CO[C@H]1/C=C/O[C@@]2(C)Oc3c(C)c(O)c4c(O)c(c5c(nc6cc(C)ccn65)c4c3C2=O)NC(=O)/C(C)=C\C=C\[C@H](C)[C@H](O)[C@@H](C)[C@@H](O)[C@@H](C)[C@H](OC(C)=O)[C@@H]1C` is ___ 32

====

In this section, each of the compounds is paired with its reported MIC50.
Tested on: Lactobacillus sp.
EXPERIMENT NOTES: Antimicrobial activity against Lactobacillus sp. by Wadsworth agar dilution method
Format: functional
Give me the value, and tack the unit on after it.

// below: answered compounds
>  <COMPOUND>
CC(=O)Oc1ccccc1C(=O)Nc1ncc([N+](=O)[O-])s1 [NITAZOXANIDE]

>  <MIC50>
2 µg/mL

$$$$
>  <COMPOUND>
CO[C@H]1/C=C/O[C@@]2(C)Oc3c(C)c(O)c4c(O)c(c5c(nc6cc(C)ccn65)c4c3C2=O)NC(=O)/C(C)=C\C=C\[C@H](C)[C@H](O)[C@@H](C)[C@@H](O)[C@@H](C)[C@H](OC(C)=O)[C@@H]1C

>  <MIC50>
0.5 µg/mL

$$$$
>  <COMPOUND>
CN[C@H](CC(C)C)C(=O)N[C@H]1C(=O)N[C@@H](CC(N)=O)C(=O)N[C@H]2C(=O)N[C@H]3C(=O)N[C@H](C(=O)N[C@H](C(=O)O)c4cc(O)cc(O)c4-c4cc3ccc4O)[C@H](O)c3ccc(c(Cl)c3)Oc3cc2cc(c3O[C@@H]2O[C@H](CO)[C@@H](O)[C@H](O)[C@H]2O[C@H]2C[C@](C)(N)[C@H](O)[C@H](C)O2)Oc2ccc(cc2Cl)[C@H]1O

>  <MIC50>
1 µg/mL

$$$$

Next compound, please.
Fill in: MIC50 of `NC[C@@H]1O[C@H](O[C@H]2[C@@H](O)[C@H](O[C@@H]3[C@@H](O)[C@H](N)C[C@H](N)[C@H]3O[C@H]3O[C@H](CN)[C@@H](O)[C@H](O)[C@H]3N)O[C@@H]2CO)[C@H](N)[C@@H](O)[C@@H]1O` is ___ 128 µg/mL

====

System: Propionibacterium avidum
EXPERIMENT NOTES: Antimicrobial activity against Propionibacterium avidum by Wadsworth agar dilution method
Format: functional
CONDITION DETAILS: Cutibacterium avidum
ATTRIBUTE MEASURED: MIC50

// below: answered compounds
>  <COMPOUND>
CC(=O)Oc1ccccc1C(=O)Nc1ncc([N+](=O)[O-])s1 [NITAZOXANIDE]

>  <MIC50>
2 mg/L

$$$$
>  <COMPOUND>
CN[C@H](CC(C)C)C(=O)N[C@H]1C(=O)N[C@@H](CC(N)=O)C(=O)N[C@H]2C(=O)N[C@H]3C(=O)N[C@H](C(=O)N[C@H](C(=O)O)c4cc(O)cc(O)c4-c4cc3ccc4O)[C@H](O)c3ccc(c(Cl)c3)Oc3cc2cc(c3O[C@@H]2O[C@H](CO)[C@@H](O)[C@H](O)[C@H]2O[C@H]2C[C@](C)(N)[C@H](O)[C@H](C)O2)Oc2ccc(cc2Cl)[C@H]1O

>  <MIC50>
1 mg/L

$$$$
>  <COMPOUND>
CO[C@H]1/C=C/O[C@@]2(C)Oc3c(C)c(O)c4c(O)c(c5c(nc6cc(C)ccn65)c4c3C2=O)NC(=O)/C(C)=C\C=C\[C@H](C)[C@H](O)[C@@H](C)[C@@H](O)[C@@H](C)[C@H](OC(C)=O)[C@@H]1C

>  <MIC50>
0.5 mg/L

$$$$

Next compound, please.
Checklist item: MIC50 tested on Propionibacterium avidum, entry `NC[C@@H]1O[C@H](O[C@H]2[C@@H](O)[C@H](O[C@@H]3[C@@H](O)[C@H](N)C[C@H](N)[C@H]3O[C@H]3O[C@H](CN)[C@@H](O)[C@H](O)[C@H]3N)O[C@@H]2CO)[C@H](N)[C@@H](O)[C@@H]1O` , value? 128 mg/L

====

System: Catenibacterium mitsuokai
EXPERIMENT NOTES: Antimicrobial activity against Catenibacterium mitsuokai by Wadsworth agar dilution method
Type: functional
In this section, each of the compounds is paired with its reported MIC50.
Please respond with the number in µg/mL and leave the unit unwritten.

>  <COMPOUND>
CO[C@H]1/C=C/O[C@@]2(C)Oc3c(C)c(O)c4c(O)c(c5c(nc6cc(C)ccn65)c4c3C2=O)NC(=O)/C(C)=C\C=C\[C@H](C)[C@H](O)[C@@H](C)[C@@H](O)[C@@H](C)[C@H](OC(C)=O)[C@@H]1C

>  <MIC50, µg/mL>
0.5

$$$$
>  <COMPOUND>
CN[C@H](CC(C)C)C(=O)N[C@H]1C(=O)N[C@@H](CC(N)=O)C(=O)N[C@H]2C(=O)N[C@H]3C(=O)N[C@H](C(=O)N[C@H](C(=O)O)c4cc(O)cc(O)c4-c4cc3ccc4O)[C@H](O)c3ccc(c(Cl)c3)Oc3cc2cc(c3O[C@@H]2O[C@H](CO)[C@@H](O)[C@H](O)[C@H]2O[C@H]2C[C@](C)(N)[C@H](O)[C@H](C)O2)Oc2ccc(cc2Cl)[C@H]1O

>  <MIC50, µg/mL>
1

$$$$
>  <COMPOUND>
NC[C@@H]1O[C@H](O[C@H]2[C@@H](O)[C@H](O[C@@H]3[C@@H](O)[C@H](N)C[C@H](N)[C@H]3O[C@H]3O[C@H](CN)[C@@H](O)[C@H](O)[C@H]3N)O[C@@H]2CO)[C@H](N)[C@@H](O)[C@@H]1O

>  <MIC50, µg/mL>
128

$$$$

Checklist item: MIC50 tested on Catenibacterium mitsuokai, entry CC(=O)Oc1ccccc1C(=O)Nc1ncc([N+](=O)[O-])s1 [NITAZOXANIDE] , value? 2
